Examples of binders with documented kon follow.
# study system: T1, human C1s (human, UniProt P09871 16-688)
# T1 construct: Analyte in the Biacore assays; also called hC1s; serum-derived human C1s (CompTech)
# T1 sequence: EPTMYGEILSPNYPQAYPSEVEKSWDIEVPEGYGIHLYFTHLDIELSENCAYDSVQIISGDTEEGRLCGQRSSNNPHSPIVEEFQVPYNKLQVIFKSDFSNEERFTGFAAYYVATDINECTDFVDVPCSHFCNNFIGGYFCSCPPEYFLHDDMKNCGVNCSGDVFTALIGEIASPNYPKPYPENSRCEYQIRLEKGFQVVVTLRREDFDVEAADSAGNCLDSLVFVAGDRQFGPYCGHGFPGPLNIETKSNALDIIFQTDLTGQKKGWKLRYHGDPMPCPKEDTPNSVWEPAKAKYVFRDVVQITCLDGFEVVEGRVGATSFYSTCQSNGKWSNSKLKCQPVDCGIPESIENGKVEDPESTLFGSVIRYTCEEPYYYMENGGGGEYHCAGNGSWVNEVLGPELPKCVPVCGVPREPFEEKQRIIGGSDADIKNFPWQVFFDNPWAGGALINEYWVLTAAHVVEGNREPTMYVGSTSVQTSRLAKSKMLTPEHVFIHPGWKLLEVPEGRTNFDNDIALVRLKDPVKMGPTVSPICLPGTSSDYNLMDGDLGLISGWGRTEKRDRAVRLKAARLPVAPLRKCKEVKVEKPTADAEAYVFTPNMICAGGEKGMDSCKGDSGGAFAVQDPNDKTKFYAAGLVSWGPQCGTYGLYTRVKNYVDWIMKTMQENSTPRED
# assay: SPR (Biacore T200, 37C), Ab captured on protein A/G; pH 5.8, 3 uM Ca
Form entry: value (M⁻¹ s⁻¹) — number only.

Guide cases for kon, answers given:
INSERT INTO results (binder, experimental_endpoint, measured) VALUES
  ('C1_IPN92H0061-SG4GK/IPN93L0024-SK1 (antibody, human IgG4 S228P, kappa, name in Kabat numbering, V domains shown, Substitutions from IPN009VH2, Kabat numbering; also called IPN92H0061/IPN93L0024) VH: EVMLVESGGGLVKPGGSLRLSCAASGFTKSNYAMSWVRQAPGKGLEWVATISSGGSHTYYLDSVKGRFTISRDNSKDTLYLQMNSLRAEDTALYYCARLFTGHAMDYWGQGTLVTVSS VL: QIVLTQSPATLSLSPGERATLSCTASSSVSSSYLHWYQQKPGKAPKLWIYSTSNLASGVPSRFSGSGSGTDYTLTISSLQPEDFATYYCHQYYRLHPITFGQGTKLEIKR', 'kon', 633000),
  ('C1_IPN92H0261-SG4GK/IPN93L0091-SK1 (antibody, human IgG4 S228P, kappa, name in Kabat numbering, V domains shown, Substitutions from IPN009VH2 / IPN009VK3, Kabat numbering; also called IPN92H0261/IPN93L0091) VH: EVMLVESGGGLVKPGGSLRLSCAASGFTFSNYAMSWVRQAPGKGLEWVATISSGGSHTYELDSVKGRFTISRDNSKDTLYLQMNSLRAEDTALYYCARLFTKHAMDYWGQGTLVTVSS VL: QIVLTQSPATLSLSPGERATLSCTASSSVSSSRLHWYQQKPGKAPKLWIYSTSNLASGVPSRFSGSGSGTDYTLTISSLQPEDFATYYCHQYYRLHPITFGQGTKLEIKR', 'kon', 606000);

(Q) Need kon of C1_IPN92H0033-SG4GK/IPN93L0072-SK1 (antibody, human IgG4 S228P, kappa, name in Kabat numbering, V domains shown, VL substitutions from IPN009VK3, Kabat numbering; also called IPN92H0033/IPN93L0072) VH: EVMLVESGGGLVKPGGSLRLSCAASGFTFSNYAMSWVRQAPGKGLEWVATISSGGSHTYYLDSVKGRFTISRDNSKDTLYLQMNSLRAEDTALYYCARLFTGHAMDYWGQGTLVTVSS VL: QIVLTQSPATLSLSPGERATLSCTASSSVKSSYLHWYQQKPGKAPKLWIYSTSNLASGVPSRFSGSGSGTDYTLTISSLQPEDFATYYCHQYYRLHPITFGQGTKLEIKR , thanks.
(A) 967000
